- System: TRKB;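 further: KINOMEscan kinase panel screen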
- details: concentration: 1 μM, replicates: in singlicate; n = 1
Exercise: state measured %Inh for each of the compounds provided.
API: value field is a number in %; no unit string.

# input Quickly give me recorded %Inh for `FC(F)(F)c1ccc(/C=C/c2cncnc2Nc2ccc3[nH]c(Cc4ccccc4)nc3c2)cc1`
# output 8

# input Note %Inh for the compound shown: `O=C(Nc1cccc(Oc2ccc3nc(NC(=O)C4CC4)cn3n2)c1)c1ccccc1C(F)(F)F`
# output 0

# input Fill in reported %Inh for this entry: `Cn1cc(-c2ccc3c(c2)CCN3C(=O)Cc2cccc(Cl)c2)c2c(N)ncnc21`
# output 54

# input In one line, give reported %Inh of the entry `C[C@@H](Oc1cc(-n2cnc3cc(-c4ccnc(NCCS(C)(=O)=O)c4)ccc32)sc1C(N)=O)c1ccccc1Cl` .
# output 39
